- SYSTEM: angiotensin-I converting enzyme (ACE) (Oryctolagus cuniculus, UniProt P12822)
- Construct: purchased Sigma-Aldrich
- Sequence (P12822 34-1310): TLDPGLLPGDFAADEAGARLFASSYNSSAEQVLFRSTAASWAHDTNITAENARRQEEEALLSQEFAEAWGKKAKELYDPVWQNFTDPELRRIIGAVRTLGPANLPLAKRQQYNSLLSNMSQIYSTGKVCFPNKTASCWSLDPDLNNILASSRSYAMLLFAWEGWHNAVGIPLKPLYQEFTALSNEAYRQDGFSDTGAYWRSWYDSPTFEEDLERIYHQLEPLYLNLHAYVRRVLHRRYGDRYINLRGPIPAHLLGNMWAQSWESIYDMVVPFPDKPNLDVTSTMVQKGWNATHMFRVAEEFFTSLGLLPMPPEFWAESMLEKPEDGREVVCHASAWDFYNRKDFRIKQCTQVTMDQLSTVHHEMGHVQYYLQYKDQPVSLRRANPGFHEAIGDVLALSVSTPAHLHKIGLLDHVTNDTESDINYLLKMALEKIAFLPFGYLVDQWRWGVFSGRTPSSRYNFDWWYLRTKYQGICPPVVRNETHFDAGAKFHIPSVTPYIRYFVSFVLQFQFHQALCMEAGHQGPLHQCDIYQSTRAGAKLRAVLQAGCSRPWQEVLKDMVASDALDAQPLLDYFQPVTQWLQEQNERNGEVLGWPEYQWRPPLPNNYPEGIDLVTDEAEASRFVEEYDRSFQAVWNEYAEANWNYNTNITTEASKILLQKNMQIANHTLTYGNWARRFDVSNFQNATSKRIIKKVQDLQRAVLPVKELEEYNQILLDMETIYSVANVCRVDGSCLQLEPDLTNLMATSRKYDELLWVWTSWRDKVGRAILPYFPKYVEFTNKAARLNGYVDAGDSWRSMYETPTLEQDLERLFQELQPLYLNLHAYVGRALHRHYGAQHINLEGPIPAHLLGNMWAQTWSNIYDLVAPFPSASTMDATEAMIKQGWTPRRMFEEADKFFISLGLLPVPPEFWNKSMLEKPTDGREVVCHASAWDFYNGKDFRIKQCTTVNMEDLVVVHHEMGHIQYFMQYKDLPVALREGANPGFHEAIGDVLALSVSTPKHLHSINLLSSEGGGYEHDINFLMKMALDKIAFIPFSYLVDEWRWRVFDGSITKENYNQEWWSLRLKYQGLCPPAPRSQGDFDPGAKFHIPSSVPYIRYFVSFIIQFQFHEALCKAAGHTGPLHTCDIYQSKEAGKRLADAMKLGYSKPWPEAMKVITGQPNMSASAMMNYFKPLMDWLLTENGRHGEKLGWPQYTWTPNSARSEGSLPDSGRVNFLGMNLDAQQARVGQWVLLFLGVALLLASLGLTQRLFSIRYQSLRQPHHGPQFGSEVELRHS
- ASSAY_INFO: ACE inhibitory activity (iACE), fluorometric assay
- Type: biochemical
- COND: Raw peptide; mean ± SD
Ends that are not written are not given here.
MEASURED_PROPERTY: IC50 (µM)

1: SWMHQPP [SWMHQPP]
2: YPYQGPIVL [YPYQGPIVL]
Enquiry: Which item exceeds the other in IC50, 1 or 2 ? // return label of chosen record
Return: 2
(2: 1060 µM, 1: 253 µM)

---

As shown below, each of these substances has a reported pIC50 value.
- SYSTEM: angiotensin-I converting enzyme (ACE) (Oryctolagus cuniculus)
- Construct: purchased Sigma-Aldrich
- Sequence (P12822 34-1310): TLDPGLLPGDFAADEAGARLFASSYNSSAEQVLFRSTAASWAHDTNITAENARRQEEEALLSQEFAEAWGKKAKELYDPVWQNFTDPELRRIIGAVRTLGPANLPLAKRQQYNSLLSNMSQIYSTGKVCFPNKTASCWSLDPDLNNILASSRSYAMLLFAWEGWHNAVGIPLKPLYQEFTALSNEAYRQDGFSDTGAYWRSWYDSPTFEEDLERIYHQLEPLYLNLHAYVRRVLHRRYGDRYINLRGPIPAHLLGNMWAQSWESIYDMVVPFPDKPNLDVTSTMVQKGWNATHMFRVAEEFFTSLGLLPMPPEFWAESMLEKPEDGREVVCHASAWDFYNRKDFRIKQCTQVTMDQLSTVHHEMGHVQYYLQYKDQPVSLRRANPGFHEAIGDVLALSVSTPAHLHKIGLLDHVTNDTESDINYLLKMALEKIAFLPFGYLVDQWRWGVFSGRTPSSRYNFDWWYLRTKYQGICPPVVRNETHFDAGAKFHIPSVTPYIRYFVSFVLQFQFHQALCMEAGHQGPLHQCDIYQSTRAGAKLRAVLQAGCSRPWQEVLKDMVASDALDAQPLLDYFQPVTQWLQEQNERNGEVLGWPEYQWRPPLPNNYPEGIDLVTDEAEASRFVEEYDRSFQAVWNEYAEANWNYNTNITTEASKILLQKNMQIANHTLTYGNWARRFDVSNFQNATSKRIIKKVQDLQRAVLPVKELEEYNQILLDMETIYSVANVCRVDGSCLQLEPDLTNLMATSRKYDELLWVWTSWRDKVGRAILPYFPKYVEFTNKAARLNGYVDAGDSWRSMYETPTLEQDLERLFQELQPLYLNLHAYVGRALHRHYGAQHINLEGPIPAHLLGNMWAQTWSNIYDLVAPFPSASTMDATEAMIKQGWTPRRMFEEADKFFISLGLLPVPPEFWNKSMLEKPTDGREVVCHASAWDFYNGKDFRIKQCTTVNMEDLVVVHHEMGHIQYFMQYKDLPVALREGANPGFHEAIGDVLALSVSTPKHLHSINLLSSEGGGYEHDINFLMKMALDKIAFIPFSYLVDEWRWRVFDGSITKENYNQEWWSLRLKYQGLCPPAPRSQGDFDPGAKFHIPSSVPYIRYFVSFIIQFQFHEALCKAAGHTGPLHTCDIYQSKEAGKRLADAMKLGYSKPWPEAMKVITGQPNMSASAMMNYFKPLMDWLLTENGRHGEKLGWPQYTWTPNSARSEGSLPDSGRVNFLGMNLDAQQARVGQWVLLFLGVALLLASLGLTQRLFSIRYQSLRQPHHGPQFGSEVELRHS
- ASSAY_INFO: ACE inhibitory activity (iACE), fluorometric assay
- Assay type: biochemical
- COND: Digested (simulated gastrointestinal digestion, 50 µg mL^−1 in intestinal compartment)
pIC50: −log10 of the molar value. Ends that are not written are not given here.

- SUBSTANCE: "SWMHQPP [SWMHQPP]"
  SYSTEM: "angiotensin-I converting enzyme (ACE) (Oryctolagus cuniculus)"
  pIC50: "< 4.25"
- SUBSTANCE: "YPYQGPIVL [YPYQGPIVL]"
  SYSTEM: "angiotensin-I converting enzyme (ACE) (Oryctolagus cuniculus)"
  pIC50: "< 4.32"

Now take the following substance into account.
QSLVYPFTGPIPNSL [QSLVYPFTGPIPNSL] tested on angiotensin-I converting enzyme (ACE) (Oryctolagus cuniculus) gave pIC50: < 4.51

---

- SYSTEM: angiotensin-I converting enzyme (ACE) (Oryctolagus cuniculus, UniProt P12822)
- Construct: purchased Sigma-Aldrich
- ASSAY_INFO: ACE inhibitory activity (iACE), fluorometric assay
- Format: biochemical
- COND: Raw peptide; mean ± SD
Ends that are not written are not given here.
MEASURED_PROPERTY: IC50

- SUBSTANCE: "HQPPQPL [HQPPQPL]"
  MEASURED_PROPERTY: "IC50"
  OBSERVED: "> 3.68 mM"
- SUBSTANCE: "MHQPPQPL [MHQPPQPL]"
  MEASURED_PROPERTY: "IC50"
  OBSERVED: "> 3.17 mM"

Now take the following substance into account.
Sample QSLVYPFTGPIPNSL [QSLVYPFTGPIPNSL] ; IC50 observed: > 1.84 mM
